- Measurement Target: T1, cynomolgus monkey IL-2Rα/CD25 subunit (cynomolgus monkey, UniProt H6WS54 22-213)
- T1 construct: also called Cyno IL-2R subunit
- T1 sequence: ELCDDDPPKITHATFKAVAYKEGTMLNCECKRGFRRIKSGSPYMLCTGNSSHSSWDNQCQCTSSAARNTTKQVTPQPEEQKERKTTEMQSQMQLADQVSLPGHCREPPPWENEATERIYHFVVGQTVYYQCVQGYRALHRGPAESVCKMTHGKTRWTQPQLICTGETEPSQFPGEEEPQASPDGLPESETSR
- Assay Text: ELISA, bivalent; EC50 cyno vs human subunit
# Fold change per entry
Express the result in fold but write the number alone.

Binder | Fold change, fold
8-MP01C12 VHH-hFc, monospecific bivalent (Fc fusion, IgG1 Fc LALA-PG; also called anti-IL-2Rα Ab 8; anti-IL-2Rα VHH 8; not shown: human IgG1 CH2 and CH3 domains (Fc)) QVQLVESGGGLVQPGGSLRLSCATSGFTFSNNFMSWVRQAPGKGLEFVSTISYGGESTTYAEAVKGRFTISRDNAKNTLYLQMNNLKPEDTAIYYCAKATSYTSIRGAPRGQGTQVTVSS | 1.1

Please fill in: Fold change reported for 3-MP01E03 VHH-hFc, monospecific bivalent (Fc fusion, IgG1 Fc LALA-PG; not shown: human IgG1 CH2 and CH3 domains (Fc)) QVQLVESGGGLVQAGGSLRLSCTASGRTLSSYSMAWFRQAADKGREFVTAISSSGVVTHVLDSVKGRFTISRDNAKNTVYLQMNSLQPEDTALYFCAGTASSYSTYEANYNYWGQGTLVTVSS = 1.9

Please fill in: Fold change reported for 11-MP05H04 VHH-hFc, monospecific bivalent (Fc fusion, IgG1 Fc LALA-PG; not shown: human IgG1 CH2 and CH3 domains (Fc)) QLQLVESGGGLVQAGGSLRLSCAASGLTFEGYAIGWFRQAPGKEREGVSYITGSDGTTYYINSVKGRFTISSDNAKSTVYLQMNTLKPEDTAVYYCAVDRLGSQGRYASAWWRSGDMDLWGKGTQVTVSS = 1.2

Please fill in: Fold change reported for 6-MP01G05 VHH-hFc, monospecific bivalent (Fc fusion, IgG1 Fc LALA-PG; not shown: human IgG1 CH2 and CH3 domains (Fc)) QVQLQESGGGLVQAGGSLRLSCAASGRTFSSYAMGWFRQAPGKEREFVAVISWNVDNTEYTDSVKGRFTISRDNDKNMVYLQMNSLKPEDTAVYYCAADSIPLSSDMSPTATEYGYWGQGTQVTVSS = 0.9

Please fill in: Fold change reported for 12-MP05B12 VHH-hFc, monospecific bivalent (Fc fusion, IgG1 Fc LALA-PG; not shown: human IgG1 CH2 and CH3 domains (Fc)) QVQLVESGGGLVQAGGSLRLSCAASGFTFDGYAIGWFRQAPGKEREGVSYITGSDGSTYYADSVKGRFTISSNNAKNTVYLHMNSLKPDDAAVYYCAIDRLGSRGAYVPIWWRSSDMDLWGKGTLVTVSS = 1.1
